- System: Streptococcus sp. 'group B'
- procedure.details: Antimicrobial activity against Group B Streptococcus by agar dilution method
- Assay type: functional
outcome.measure: MIC90 (µg/mL)

# molecule, value.observed
measured = [
    ("COc1c(N2C[C@@H]3CCCN[C@@H]3C2)c(F)cc2c(=O)c(C(=O)O)cn(C3CC3)c12 [MOXIFLOXACIN]", 0.5),
    ("COc1ncc(C2c3ccccc3C=NN2C(=O)/C=C/c2cc(Cc3cnc(N)nc3N)cc(OC)c2OC)cn1 (stereo unspecified)", 0.06),
    ("COc1cc(Cc2cnc(N)nc2N)cc(/C=C/C(=O)N2N=Cc3ccccc3C2c2cnc(N(C)C)nc2)c1OC (stereo unspecified)", 0.12),
    ("CC(=O)NC[C@H]1CN(c2ccc(N3CCOCC3)c(F)c2)C(=O)O1 [LINEZOLID]", 2),
    ("CN[C@H](CC(C)C)C(=O)N[C@H]1C(=O)N[C@@H](CC(N)=O)C(=O)N[C@H]2C(=O)N[C@H]3C(=O)N[C@H](C(=O)N[C@H](C(=O)O)c4cc(O)cc(O)c4-c4cc3ccc4O)[C@H](O)c3ccc(c(Cl)c3)Oc3cc2cc(c3O[C@@H]2O[C@H](CO)[C@@H](O)[C@H](O)[C@H]2O[C@H]2C[C@](C)(N)[C@H](O)[C@H](C)O2)Oc2ccc(cc2Cl)[C@H]1O [VANCOMYCIN]", 0.25),
    ("COc1cc(Cc2cnc(N)nc2N)cc(OC)c1OC [TRIMETHOPRIM]", 1),
]

---

Measured MIC50 accompanies every entry in the list below.
- System: Streptococcus pneumoniae
- procedure.details: Antimicrobial activity against Streptococcus pneumoniae by agar dilution method
- Format: functional
outcome.measure: MIC50

# molecule, outcome.measure, value.observed
rows = [
    ("COc1cc(Cc2cnc(N)nc2N)cc(OC)c1OC [TRIMETHOPRIM]", "MIC50", "1 µg/mL"),
    ("COc1cc(Cc2cnc(N)nc2N)cc(/C=C/C(=O)N2N=Cc3ccccc3C2c2cnc(N(C)C)nc2)c1OC (centres undefined)", "MIC50", "0.12 µg/mL"),
    ("CCCCCCCCCC(=O)N[C@@H](Cc1c[nH]c2ccccc12)C(=O)N[C@H](CC(N)=O)C(=O)N[C@@H](CC(=O)O)C(=O)N[C@@H]1C(=O)NCC(=O)N[C@@H](CCCN)C(=O)N[C@@H](CC(=O)O)C(=O)N[C@H](C)C(=O)N[C@@H](CC(=O)O)C(=O)NCC(=O)N[C@H](CO)C(=O)N[C@@H]([C@H](C)CC(=O)O)C(=O)N[C@@H](CC(=O)c2ccccc2N)C(=O)O[C@@H]1C", "MIC50", "0.06 µg/mL"),
    ("CN(C)c1ccc(O)c2c1C[C@H]1C[C@H]3[C@H](N(C)C)C(O)=C(C(N)=O)C(=O)[C@@]3(O)C(O)=C1C2=O [MINOCYCLINE]", "MIC50", "0.25 µg/mL"),
    ("CN[C@H](CC(C)C)C(=O)N[C@H]1C(=O)N[C@@H](CC(N)=O)C(=O)N[C@H]2C(=O)N[C@H]3C(=O)N[C@H](C(=O)N[C@H](C(=O)O)c4cc(O)cc(O)c4-c4cc3ccc4O)[C@H](O)c3ccc(c(Cl)c3)Oc3cc2cc(c3O[C@@H]2O[C@H](CO)[C@@H](O)[C@H](O)[C@H]2O[C@H]2C[C@](C)(N)[C@H](O)[C@H](C)O2)Oc2ccc(cc2Cl)[C@H]1O [VANCOMYCIN]", "MIC50", "0.12 µg/mL"),
    ("CC(=O)NC[C@H]1CN(c2ccc(N3CCOCC3)c(F)c2)C(=O)O1 [LINEZOLID]", "MIC50", "1 µg/mL"),
    ("COc1ncc(C2c3ccccc3C=NN2C(=O)/C=C/c2cc(Cc3cnc(N)nc3N)cc(OC)c2OC)cn1 (centres undefined)", "MIC50", "0.06 µg/mL"),
    ("COc1cc(Cc2cnc(N)nc2N)cc(/C=C/C(=O)N2N=Cc3ccccc3C2c2cnc(N3CCOCC3)nc2)c1OC (centres undefined)", "MIC50", "0.12 µg/mL"),
    ("COc1c(N2C[C@@H]3CCCN[C@@H]3C2)c(F)cc2c(=O)c(C(=O)O)cn(C3CC3)c12 [MOXIFLOXACIN]", "MIC50", "0.25 µg/mL"),
]

---

- System: Streptococcus sp. 'group B'
- procedure.details: Antimicrobial activity against Group B Streptococcus by agar dilution method
- Format: functional
compounds and their reported MIC90
outcome.measure: MIC90 (mg/L)

# compound, value.observed
measured = [
    ("CN(C)c1ccc(O)c2c1C[C@H]1C[C@H]3[C@H](N(C)C)C(O)=C(C(N)=O)C(=O)[C@@]3(O)C(O)=C1C2=O", 32),
    ("CCCCCCCCCC(=O)N[C@@H](Cc1c[nH]c2ccccc12)C(=O)N[C@H](CC(N)=O)C(=O)N[C@@H](CC(=O)O)C(=O)N[C@@H]1C(=O)NCC(=O)N[C@@H](CCCN)C(=O)N[C@@H](CC(=O)O)C(=O)N[C@H](C)C(=O)N[C@@H](CC(=O)O)C(=O)NCC(=O)N[C@H](CO)C(=O)N[C@@H]([C@H](C)CC(=O)O)C(=O)N[C@@H](CC(=O)c2ccccc2N)C(=O)O[C@@H]1C", 0.06),
    ("COc1cc(Cc2cnc(N)nc2N)cc(/C=C/C(=O)N2N=Cc3ccccc3C2c2cnc(N3CCOCC3)nc2)c1OC (stereo not drawn)", 0.12),
]

---

- Test system: Listeria monocytogenes
- procedure.details: Antimicrobial activity against Listeria monocytogenes by agar dilution method
- Assay type: functional
outcome.measure: log10 of MIC50 (log10 of the value in µg/mL)

# compound, value.observed
measured = [
    ("CCCCCCCCCC(=O)N[C@@H](Cc1c[nH]c2ccccc12)C(=O)N[C@H](CC(N)=O)C(=O)N[C@@H](CC(=O)O)C(=O)N[C@@H]1C(=O)NCC(=O)N[C@@H](CCCN)C(=O)N[C@@H](CC(=O)O)C(=O)N[C@H](C)C(=O)N[C@@H](CC(=O)O)C(=O)NCC(=O)N[C@H](CO)C(=O)N[C@@H]([C@H](C)CC(=O)O)C(=O)N[C@@H](CC(=O)c2ccccc2N)C(=O)O[C@@H]1C", 0.00),
    ("COc1ncc(C2c3ccccc3C=NN2C(=O)/C=C/c2cc(Cc3cnc(N)nc3N)cc(OC)c2OC)cn1 (centres undefined)", -1.82),
    ("COc1cc(Cc2cnc(N)nc2N)cc(OC)c1OC [TRIMETHOPRIM]", -1.22),
    ("CC(=O)NC[C@H]1CN(c2ccc(N3CCOCC3)c(F)c2)C(=O)O1 [LINEZOLID]", 0.30),
    ("COc1cc(Cc2cnc(N)nc2N)cc(/C=C/C(=O)N2N=Cc3ccccc3C2c2cnc(N(C)C)nc2)c1OC (centres undefined)", -1.52),
    ("CN(C)c1ccc(O)c2c1C[C@H]1C[C@H]3[C@H](N(C)C)C(O)=C(C(N)=O)C(=O)[C@@]3(O)C(O)=C1C2=O [MINOCYCLINE]", -0.60),
    ("COc1cc(Cc2cnc(N)nc2N)cc(/C=C/C(=O)N2N=Cc3ccccc3C2c2cnc(N3CCOCC3)nc2)c1OC (centres undefined)", -1.22),
    ("CN[C@H](CC(C)C)C(=O)N[C@H]1C(=O)N[C@@H](CC(N)=O)C(=O)N[C@H]2C(=O)N[C@H]3C(=O)N[C@H](C(=O)N[C@H](C(=O)O)c4cc(O)cc(O)c4-c4cc3ccc4O)[C@H](O)c3ccc(c(Cl)c3)Oc3cc2cc(c3O[C@@H]2O[C@H](CO)[C@@H](O)[C@H](O)[C@H]2O[C@H]2C[C@](C)(N)[C@H](O)[C@H](C)O2)Oc2ccc(cc2Cl)[C@H]1O [VANCOMYCIN]", 0.00),
    ("COc1c(N2C[C@@H]3CCCN[C@@H]3C2)c(F)cc2c(=O)c(C(=O)O)cn(C3CC3)c12 [MOXIFLOXACIN]", -0.30),
]

---

The entries below come with measured MIC50 values attached.
- Test system: Corynebacterium sp.
- procedure.details: Antimicrobial activity against Corynebacterium spp. by agar dilution method
- Assay type: functional
outcome.measure: MIC50 (µg/mL)

# compound, outcome.measure, value.observed
data = [
    ("COc1ncc(C2c3ccccc3C=NN2C(=O)/C=C/c2cc(Cc3cnc(N)nc3N)cc(OC)c2OC)cn1 (configuration not stated)", "MIC50", 0.06),
    ("CN[C@H](CC(C)C)C(=O)N[C@H]1C(=O)N[C@@H](CC(N)=O)C(=O)N[C@H]2C(=O)N[C@H]3C(=O)N[C@H](C(=O)N[C@H](C(=O)O)c4cc(O)cc(O)c4-c4cc3ccc4O)[C@H](O)c3ccc(c(Cl)c3)Oc3cc2cc(c3O[C@@H]2O[C@H](CO)[C@@H](O)[C@H](O)[C@H]2O[C@H]2C[C@](C)(N)[C@H](O)[C@H](C)O2)Oc2ccc(cc2Cl)[C@H]1O", "MIC50", 0.25),
]
